Test system: PfAP2-HC AP2 domain (GST-tagged)
Experiment Description: gcPBM binding intensity (ln(normalized median fluorescence intensity)); higher = stronger DNA binding
In all, about 25,000 sequences were measured (“ln(normalized median fluorescence intensity)”: median about 9.7, highest 2% from about 11 on). For the sample, the highest values were picked, then their nearest neighbours and some sequences at random.
Each entry gets no if its gcPBM binding intensity (ln) stays under 10, and yes if its gcPBM binding intensity (ln) is 10 or above.

[[record]]
input_sequence = "ATATTATATAAATACACACACACATGCATGCACATA [CACACA_site4236]"
study_target = "PfAP2-HC AP2 domain (GST-tagged)"
class_name = "yes"

[[record]]
input_sequence = "CAAATACACGGACACACACACACAAAAAAAAAAAAA [CACACA_site6385]"
study_target = "PfAP2-HC AP2 domain (GST-tagged)"
class_name = "yes"

[[record]]
input_sequence = "AAATAAATAATATGTAAACACACAAAAAATAAAAAT [CACACA_site8307]"
study_target = "PfAP2-HC AP2 domain (GST-tagged)"
class_name = "yes"

[[record]]
input_sequence = "ATAAAAAAAGGACACACACACATATATTTATTTATA [CACACA_site7438]"
study_target = "PfAP2-HC AP2 domain (GST-tagged)"
class_name = "yes"

[[record]]
input_sequence = "AATATAAATAAAAACACACACACACCCATATATATA [CACACA_site2267]"
study_target = "PfAP2-HC AP2 domain (GST-tagged)"
class_name = "yes"

[[record]]
input_sequence = "ATAAAAAAAGGACACACACACATATATATATATATA [CACACA_site5662]"
study_target = "PfAP2-HC AP2 domain (GST-tagged)"
class_name = "yes"

[[record]]
input_sequence = "TGTTTTTTATTTAATTGTACGAATTAAAAAAAATAA [XGTACX_site3009]"
study_target = "PfAP2-HC AP2 domain (GST-tagged)"
class_name = "no"

[[record]]
input_sequence = "CAAAAGGATATGCACACACACACACGGATATTTATA [CACACA_site7099]"
study_target = "PfAP2-HC AP2 domain (GST-tagged)"
class_name = "yes"

[[record]]
input_sequence = "TAAAACATAAGAGACACACACACATATATATATATA [CACACA_site3643]"
study_target = "PfAP2-HC AP2 domain (GST-tagged)"
class_name = "yes"

[[record]]
input_sequence = "AAAAAAAATACATACACACACACACGCACATATATA [CACACA_site7645]"
study_target = "PfAP2-HC AP2 domain (GST-tagged)"
class_name = "yes"

[[record]]
input_sequence = "TATATATATTTATGCACACAAAATATATTATATAAT [CACACA_site5955]"
study_target = "PfAP2-HC AP2 domain (GST-tagged)"
class_name = "no"

[[record]]
input_sequence = "TTGTTTATTTGTAAAGCTAACAAGAAATGTGAATAT [CACACA_negctrl_site931]"
study_target = "PfAP2-HC AP2 domain (GST-tagged)"
class_name = "no"

[[record]]
input_sequence = "ATTCTATATATATAAACACACAAATATTTTTATATA [CACACA_site1677]"
study_target = "PfAP2-HC AP2 domain (GST-tagged)"
class_name = "no"

[[record]]
input_sequence = "TACCAAAATAGACACACACACAAAATATGTAAATAT [CACACA_site6963]"
study_target = "PfAP2-HC AP2 domain (GST-tagged)"
class_name = "yes"

[[record]]
input_sequence = "AATGTACACCCACCCACACACAAACAAATATATATA [CACACA_site5521]"
study_target = "PfAP2-HC AP2 domain (GST-tagged)"
class_name = "yes"

[[record]]
input_sequence = "CTTACCAAAAAACACACACACACAAAATATATAAAT [CACACA_site1870]"
study_target = "PfAP2-HC AP2 domain (GST-tagged)"
class_name = "yes"

[[record]]
input_sequence = "AAATTCCACGAACACACACACATATAAATAAATAAA [CACACA_site6697]"
study_target = "PfAP2-HC AP2 domain (GST-tagged)"
class_name = "yes"

[[record]]
input_sequence = "AATAAATATAAATACACACCCATATATATATATATA [CACACA_site5436]"
study_target = "PfAP2-HC AP2 domain (GST-tagged)"
class_name = "no"

[[record]]
input_sequence = "ATATTAAACAGACACACACACATATATTTATTTATA [CACACA_site7564]"
study_target = "PfAP2-HC AP2 domain (GST-tagged)"
class_name = "yes"

[[record]]
input_sequence = "AACGCACGAGGACACACACACATATTTATATTTATA [CACACA_site6608]"
study_target = "PfAP2-HC AP2 domain (GST-tagged)"
class_name = "yes"

[[record]]
input_sequence = "AAACATAAGAGACACACACACATATATAAATAAATA [CACACA_site7674]"
study_target = "PfAP2-HC AP2 domain (GST-tagged)"
class_name = "yes"

[[record]]
input_sequence = "AAATTCCACCAACACACACACATATAAATAAATAAA [CACACA_site1233]"
study_target = "PfAP2-HC AP2 domain (GST-tagged)"
class_name = "yes"

[[record]]
input_sequence = "TTATAAAATGGGCAAACACACACAAAAAAAAGATAT [CACACA_site8476]"
study_target = "PfAP2-HC AP2 domain (GST-tagged)"
class_name = "yes"

[[record]]
input_sequence = "AGCACGCACAGACACACACACATATTTATATTTATA [CACACA_site6291]"
study_target = "PfAP2-HC AP2 domain (GST-tagged)"
class_name = "yes"

[[record]]
input_sequence = "ATCCATTATTTTTGTTGTACGGGTAACTTTAAAAAG [XGTACX_site2226]"
study_target = "PfAP2-HC AP2 domain (GST-tagged)"
class_name = "no"

[[record]]
input_sequence = "TACTAAGAATTAATATAACAAAATAAAAAAAAAAAA [XGTACX_negctrl_site346]"
study_target = "PfAP2-HC AP2 domain (GST-tagged)"
class_name = "no"

[[record]]
input_sequence = "TATATATAAATAAACACACACAAATATAATAAAAAA [CACACA_site3526]"
study_target = "PfAP2-HC AP2 domain (GST-tagged)"
class_name = "yes"

